- target: Glucocorticoid receptor (Homo sapiens, UniProt P04150)
- Sequence (P04150 whole entry): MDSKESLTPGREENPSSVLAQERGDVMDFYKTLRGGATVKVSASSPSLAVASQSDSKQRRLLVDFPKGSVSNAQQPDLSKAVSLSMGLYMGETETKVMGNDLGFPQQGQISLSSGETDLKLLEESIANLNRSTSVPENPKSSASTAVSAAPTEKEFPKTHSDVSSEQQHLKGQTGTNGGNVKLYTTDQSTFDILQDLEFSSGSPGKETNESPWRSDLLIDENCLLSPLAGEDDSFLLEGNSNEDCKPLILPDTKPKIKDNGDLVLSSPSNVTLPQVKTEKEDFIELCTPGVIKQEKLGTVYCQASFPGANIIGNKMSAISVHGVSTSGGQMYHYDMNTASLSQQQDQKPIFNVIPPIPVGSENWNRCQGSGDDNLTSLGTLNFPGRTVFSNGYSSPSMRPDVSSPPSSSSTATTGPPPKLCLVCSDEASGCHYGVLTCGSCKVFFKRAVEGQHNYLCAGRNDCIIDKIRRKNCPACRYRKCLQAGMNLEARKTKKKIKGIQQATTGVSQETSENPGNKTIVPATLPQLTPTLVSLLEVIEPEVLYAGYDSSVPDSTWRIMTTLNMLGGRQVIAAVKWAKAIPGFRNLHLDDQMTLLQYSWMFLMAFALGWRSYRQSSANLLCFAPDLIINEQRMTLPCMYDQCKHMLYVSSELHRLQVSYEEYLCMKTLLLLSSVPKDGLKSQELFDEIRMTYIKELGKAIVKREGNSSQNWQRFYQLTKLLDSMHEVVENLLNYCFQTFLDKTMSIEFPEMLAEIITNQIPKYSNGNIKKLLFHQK
- method notes: Effective concentration in HepG2 cells transfected with LUC gene (E-sel-Luc).
- Format: functional, cell-based
pEC50: −log10 of the molar value.
recorded endpoint: pEC50

Consider the reported pEC50 for these molecules:
[[record]]
molecule = "COc1cccc2c1-c1ccc3c(c1C(CC(C)C)O2)C(C)=CC(C)(C)N3 (stereo not given)"
recorded_endpoint = "pEC50"
reading = 7.16

[[record]]
molecule = "C=CCC1Oc2cccc(OC)c2-c2ccc3c(c21)C(C)=CC(C)(C)N3 (single isomer, unassigned; (-)) [AL-43]"
recorded_endpoint = "pEC50"
reading = 8.16

[[record]]
molecule = "C=CCCC1Oc2cccc(OC)c2-c2ccc3c(c21)C(C)=CC(C)(C)N3 (stereo not given)"
recorded_endpoint = "pEC50"
reading = 7.66

[[record]]
molecule = "C#CCC1Oc2cccc(OC)c2-c2ccc3c(c21)C(C)=CC(C)(C)N3 (stereo not given)"
recorded_endpoint = "pEC50"
reading = 7.57

[[record]]
molecule = "C=CCC1Oc2cccc(OC)c2-c2ccc3c(c21)C(C)=CC(C)(C)N3 (stereo in doubt; 37) [AL-43]"
recorded_endpoint = "pEC50"
reading = 6.35

[[record]]
molecule = "C/C=C\\C1Oc2cccc(OC)c2-c2ccc3c(c21)C(C)=CC(C)(C)N3 (stereo not given)"
recorded_endpoint = "pEC50"
reading = 6.77


(a) CCC1Oc2cccc(OC)c2-c2ccc3c(c21)C(C)=CC(C)(C)N3 (stereo not given)
(b) C/C=C/C1Oc2cccc(OC)c2-c2ccc3c(c21)C(C)=CC(C)(C)N3 (stereo not given)
Input line: # argmax over pEC50 for candidates a and b The response must carry the label of the picked entry.
Output line: a

====

Target protein (sequence): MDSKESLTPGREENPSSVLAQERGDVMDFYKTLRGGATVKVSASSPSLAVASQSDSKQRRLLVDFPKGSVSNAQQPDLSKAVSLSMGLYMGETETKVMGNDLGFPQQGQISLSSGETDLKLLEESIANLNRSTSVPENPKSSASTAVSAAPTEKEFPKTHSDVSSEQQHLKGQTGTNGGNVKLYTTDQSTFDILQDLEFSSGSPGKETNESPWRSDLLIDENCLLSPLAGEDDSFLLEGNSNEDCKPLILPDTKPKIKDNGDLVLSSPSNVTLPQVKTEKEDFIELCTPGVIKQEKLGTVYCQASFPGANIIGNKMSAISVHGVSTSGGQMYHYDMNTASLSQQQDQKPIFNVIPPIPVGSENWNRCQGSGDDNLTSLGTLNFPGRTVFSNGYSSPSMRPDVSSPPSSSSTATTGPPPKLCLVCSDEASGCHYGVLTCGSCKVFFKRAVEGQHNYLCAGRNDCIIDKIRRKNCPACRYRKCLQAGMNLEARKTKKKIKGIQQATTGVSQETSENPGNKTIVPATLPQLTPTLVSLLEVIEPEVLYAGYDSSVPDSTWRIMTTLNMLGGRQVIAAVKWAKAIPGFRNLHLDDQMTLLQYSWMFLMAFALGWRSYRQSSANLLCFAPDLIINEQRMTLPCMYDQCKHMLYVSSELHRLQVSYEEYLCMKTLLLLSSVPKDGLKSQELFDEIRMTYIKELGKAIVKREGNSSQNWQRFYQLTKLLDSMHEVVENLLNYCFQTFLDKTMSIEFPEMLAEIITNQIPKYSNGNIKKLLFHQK
recorded endpoint: Ki (nM)

(1) C=CCC1Oc2cccc(OC)c2-c2ccc3c(c21)C(C)=CC(C)(C)N3 (racemic)
(2) C=CCCC1Oc2cccc(OC)c2-c2ccc3c(c21)C(C)=CC(C)(C)N3 (centres undefined)
Input line: Of 1 and 2 , which shows the smaller Ki value? The response must carry the label of the picked entry.
Output line: 1
(1: 2.5 nM, 2: 8.1 nM)

====

Recorded measurements of pEC50, one per entry
- target: Glucocorticoid receptor (Homo sapiens, UniProt P04150)
- Sequence (P04150 whole entry): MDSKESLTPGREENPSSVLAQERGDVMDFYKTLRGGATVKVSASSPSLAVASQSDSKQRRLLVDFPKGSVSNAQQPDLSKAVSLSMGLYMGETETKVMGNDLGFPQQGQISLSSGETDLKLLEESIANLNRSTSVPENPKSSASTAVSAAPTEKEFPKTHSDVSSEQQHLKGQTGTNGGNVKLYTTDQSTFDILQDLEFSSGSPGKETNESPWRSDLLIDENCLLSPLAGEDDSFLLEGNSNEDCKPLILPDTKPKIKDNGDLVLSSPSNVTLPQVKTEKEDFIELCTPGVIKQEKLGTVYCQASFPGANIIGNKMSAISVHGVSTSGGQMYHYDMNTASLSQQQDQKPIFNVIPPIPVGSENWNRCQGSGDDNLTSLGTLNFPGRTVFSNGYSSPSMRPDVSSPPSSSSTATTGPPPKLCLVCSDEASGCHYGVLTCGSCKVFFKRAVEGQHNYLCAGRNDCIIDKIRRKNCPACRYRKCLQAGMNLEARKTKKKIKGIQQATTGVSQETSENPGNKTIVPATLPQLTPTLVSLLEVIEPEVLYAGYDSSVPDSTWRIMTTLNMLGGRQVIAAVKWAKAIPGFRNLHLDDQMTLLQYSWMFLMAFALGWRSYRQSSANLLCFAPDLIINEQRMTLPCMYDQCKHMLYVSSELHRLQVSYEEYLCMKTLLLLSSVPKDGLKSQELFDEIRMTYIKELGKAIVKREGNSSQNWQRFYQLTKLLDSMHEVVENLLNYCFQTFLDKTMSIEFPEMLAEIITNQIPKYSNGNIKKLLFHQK
- method notes: Effective concentration in HepG2 cells transfected with LUC gene (E-sel-Luc).
- Assay type: functional, cell-based
pEC50: −log10 of the molar value.

[[record]]
molecule = "CNC(=O)CC1Oc2cccc(OC)c2-c2ccc3c(c21)C(C)=CC(C)(C)N3 (stereo not drawn)"
reading = "< 5.30"


Input line: Fetch value of pEC50 on Glucocorticoid receptor (Homo sapiens, UniProt P04150) for COc1cccc2c1-c1ccc3c(c1C(CC(=O)O)O2)C(C)=CC(C)(C)N3 (stereo not drawn) .
Output line: < 5.30

Input line: Fetch value of pEC50 on Glucocorticoid receptor (Homo sapiens, UniProt P04150) for COc1cccc2c1-c1ccc3c(c1C(C(N)=O)O2)C(C)=CC(C)(C)N3 (stereo not drawn) .
Output line: < 5.30

====

- target: UniProt:P04150
- method notes: The effective concentration in CV-1 cells for glucocorticoid response element activation (GRE).
- Assay type: functional, cell-based
recorded endpoint: EC50 (nM)

(a) C=CCC1Oc2cccc(OC)c2-c2ccc3c(c21)C(C)=CC(C)(C)N3 (racemic) [AL-43]
(b) CCC1Oc2cccc(OC)c2-c2ccc3c(c21)C(C)=CC(C)(C)N3 (centres undefined)
(c) COc1cccc2c1-c1ccc3c(c1C(C(C)C)O2)C(C)=CC(C)(C)N3 (centres undefined)
(d) CCCC1Oc2cccc(OC)c2-c2ccc3c(c21)C(C)=CC(C)(C)N3 (centres undefined)
Input line: Rank descending by EC50: all 4 compounds from above. // format: requested-order list of labels
Output line: b, c, d, a
(b: 264 nM, c: 146 nM, d: 75 nM, a: 33 nM)
